Can you tell me protease stability score for the items I'm about to list?
Experiment: protease stability score; higher = more stable; yeast display proteolysis, trypsin and chymotrypsin;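 also: relative to predicted unfolded state with 0 unfolded-like and 1 meaning tenfold more protease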
Numbers only.

polymer_sequence=DEEEEWLREVLRLIIEFLKTGDEDRLNEMADPTTRLRVGEFHHVGREEVHKFRKKKKDELGVDKIEFRLEDVRIQGDKATADGRVQYNGQEYKMRVIVVVVNGKVKSLTEEWE endpoint_result=1.07
polymer_sequence=DELDEILVRIAEMVVEIWETGDWEWLEHLLDPHVRLQIGDKEVHGREAIREMIHELLNKLPNIRSHIRLREVRYYNGKAHFNTELRLHINGRDLRSRVRYEILVVDGRVRSMHVEIR endpoint_result=1.09
polymer_sequence=SEDEREFLDVLKWLIEAVATGDERIWKELVDPHVRLEVGDKHRHGRETFEKTMRHLRVKEVRVKLHDFDFIGEKMTADVKLEIHLIVGDKERDIRLDIIVHSRKIDGKWHVESIHIR endpoint_result=1.51
polymer_sequence=EEEKHLLRRIVRELTESERTGDEDHLDKLLDPHARTNVNGVDFHGREDWRKWTEEFFRRVDHIEFRIEDIKIINGVAIVDTRITMHIGDKHIHFELEIKNVIIDGRVKELRIKFK endpoint_result=0.91
polymer_sequence=DEEKEETEKLAKDILHNIHTGNEEEFLKLADPNTRIVQGDFRTHGRESMHFWMREVRKLFKNVRIHWRLKDVRSFEGHAITHIEVEVSFDGRTDLIRMEIHVIVVNGKIEELIINTR endpoint_result=0.695
polymer_sequence=DEDKEYLREVLEVLKHMWDTGDERELSKLADPHTRVEINGVKFIGMEEFVRIMQELTKRADHMENRVERNIYQGDYVLVRTRLILKIGEKDFEREVDIFVRKFNGRWLIEELKFH endpoint_result=1.37
polymer_sequence=DETHELIEFLLKEMIEAWKTGNEEKIMELFDPNVRLDIGDKHYHGREEVVRAMHEYRRRLGAKHITLHDHSVVNGVIHIDTVVNQGDKEVTIHIHIHIVDGKIKRIEIRLK endpoint_result=2.07
polymer_sequence=HDEEKHDREYVEEMLEVWLTGDFDRIMHLFDPNARQEVNGVDIVGRERLHEFNRRWEEDMGFDHSHTHHVEVVNGRVHSDTRVHFNGREMETHLDLRVVNGRIKSIRVSYN endpoint_result=0.094

Can you give me protease stability score for all of these, one by one?
1. DEEEERVRRIMKEFIESLLTGDFRILTELMDPNARLHVDGVELHGRETMRKFWKDRERELGVENFDAKQRDVRLINGKAHNDGELLINGQVTKWILRVEKVDGRWRLHHIELH
2. SDRRELLERLAELFLHWWLTGDWKAISDNADPNVRLDIQQGDKHIHDIGRERTEEVLRKIFERFKNLKIEIKRFDMQGDKLHVDSRVTFDGVEFNMEIHNLVVDGRIREIYVHLH
3. DEIERKVIEFWHLLRHALITGDEDLIEDLFDPHVRTDIGDKEHHGREEFRRLWREHGIRIKDVHIEHVTIIGNKVDMEVRFHLEINGRETHKRVILVAQKIDGRWRIREYHVK
4. DEDTRESEKMLSEILESHLTGNWRMIRHLADPHVRVEIGDKTYHGRDNLKRIFLDLLEKLGVDHMEFRDIHIRVQGDKLHIHIKVDLIVGDKVDIMQSHIHVEKINGRWYVHLVHWRLT
5. DEEHKELRRAWEQLIHDIKTGDEESFKRLADPDVQVRVGDKVEHGREATERWLRQVDHIKHFEEKRIHIYDGRVELKGRVTGVINGRELNTEIDFEIVYIDGKLHRIRIHFR
6. DEDEELTRQIIEHIERNIETGDERRYRELVDPNARVDYNGVDKHGMHAILEVWNHIQHEFRGATIEHSRVRDWRFQGDKVILNFEHYFRIGDKNWRLDTRIIVDKVDGRWVIREVQIR

[0.231, 1.54, 1.88, 0.817, 1.09, 1.47]
